The reported numbers originate from paper PMC8769072.

- TESTED SYSTEM: AP2B1 700-937, P63010
- Sequence (P63010 700-937): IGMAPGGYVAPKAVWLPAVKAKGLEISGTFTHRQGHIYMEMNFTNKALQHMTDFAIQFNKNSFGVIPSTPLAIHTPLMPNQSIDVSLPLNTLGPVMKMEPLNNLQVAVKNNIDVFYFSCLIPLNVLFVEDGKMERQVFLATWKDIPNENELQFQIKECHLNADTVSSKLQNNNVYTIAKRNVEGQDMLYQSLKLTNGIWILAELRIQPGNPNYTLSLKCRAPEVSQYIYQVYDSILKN
PARAMETER: selected by phage display

> print(dat)
                              binder                  parameter             data.value
1  HERDPWYSWDQPGLRL [NDUFB8, O95169]  selected by phage display  confidence 3 (active)
2    RGVEWAAFGRDLFLAS [ELP2, Q6IA86]  selected by phage display  confidence 3 (active)
3   MGGAAASWAGWAVTGV [SCYL1, Q96KG9]  selected by phage display  confidence 3 (active)
